All figures here come from BindingDB's records for doi:10.7270/Q2319T8T.

Each record here notes measured pIC50.
target: UniProtKB Q13285; experiment: blockers of SF-1 LBD reporter transcription – cell-based, CHO-K1, Gal4-SF-1 LBD, luciferase luminescence, dose response (AID 600)
pIC50: −log10 of the molar value.
Readout type: pIC50

INSERT INTO assay_data (structure_as_smiles, result_operator, data_value) VALUES
  ('c1ccc(-c2noc(-c3ccc4ccccc4c3)n2)nc1', '=', 6.15),
  ('COCc1cc(CN2CCCC2)c(O)c2ncccc12', '=', 5.38),
  ('Cc1cnc(NC(=O)COc2ccccc2Cl)s1', '<', 5.91),
  ('COc1ccc(OC)c(NC(=O)CSc2nnnn2-c2ccc3c(c2)OCO3)c1', '=', 5.63),
  ('Cc1ccc(CNc2nc3ccccc3s2)s1', '<', 4.96),
  ('Cn1nc(C(C)(C)C)cc1C(=O)NCc1ccc(N2CCCC2=O)cc1', '=', 5.04);

###

target: Steroidogenic factor 1 (Homo sapiens, UniProt Q13285); test: blockers of SF-1 LBD reporter transcription – cell-based, CHO-K1, Gal4-SF-1 LBD, luciferase luminescence, dose response (AID 600)
Sequence (Q13285 whole entry, the tested form may be a part): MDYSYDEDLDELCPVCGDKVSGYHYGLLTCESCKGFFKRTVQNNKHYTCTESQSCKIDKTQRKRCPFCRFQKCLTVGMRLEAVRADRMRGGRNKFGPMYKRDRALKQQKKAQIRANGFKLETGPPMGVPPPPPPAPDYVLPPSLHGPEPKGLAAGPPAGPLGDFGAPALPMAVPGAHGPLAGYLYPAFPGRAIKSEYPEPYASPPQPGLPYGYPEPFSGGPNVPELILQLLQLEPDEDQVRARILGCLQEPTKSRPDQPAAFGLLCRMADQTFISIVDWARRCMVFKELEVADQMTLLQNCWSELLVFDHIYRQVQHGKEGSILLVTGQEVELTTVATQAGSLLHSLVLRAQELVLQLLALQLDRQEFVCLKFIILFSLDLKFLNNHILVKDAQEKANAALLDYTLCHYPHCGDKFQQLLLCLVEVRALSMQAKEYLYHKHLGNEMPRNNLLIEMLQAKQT
pIC50: −log10 of the molar value.
Each record here notes measured pIC50.
Readout type: pIC50

INSERT INTO assay_data (molecule, readout_type, result_operator, data_value) VALUES
  ('Cc1nnc(SC(=O)N2c3ccccc3Sc3ccccc32)s1', 'pIC50', '=', 5.27),
  ('Cc1cccc2cc(C#N)c(SCC(=O)N3CC(=O)Nc4ccccc43)nc12', 'pIC50', '<', 5.44),
  ('CC(=O)c1c(C)[nH]c(C(=O)OCCCCN2C(=O)c3ccccc3C2=O)c1C', 'pIC50', '=', 5.59),
  ('c1ccc2c(c1)CCN(c1ncnc3c1[nH]c1ccccc13)C2', 'pIC50', '=', 5.04),
  ('Cc1ccc2c(c1)[nH]c1c(N3CCN(Cc4ccccc4)CC3)ncnc12', 'pIC50', '<', 5.44),
  ('Cc1cc(-n2c(C)cc(C(=O)CSc3ncnc4ccccc34)c2C)no1', 'pIC50', '=', 5.04),
  ('CC1CCCN(c2ncnc3c2cnn3-c2ccccc2)C1 (stereo unspecified)', 'pIC50', '=', 5.17),
  ('CSC1=NC2=C(C(=O)CC(C)(C)C2)C(c2ccc(Cl)cc2)C1C#N (stereo unspecified)', 'pIC50', '=', 4.67),
  ('c1c2c(cc3sc(N4CCOCC4)nc13)OCCO2', 'pIC50', '<', 5.44),
  ('CC(=O)c1ccc(N2CCN(c3ccc(C(F)(F)F)cn3)CC2)cc1', 'pIC50', '<', 4.48),
  ('Cc1ccc(Nc2cc(C)nn2-c2nc(C)cc(O)n2)cc1', 'pIC50', '=', 5.36);

###

molecular target: Steroidogenic factor 1 (Homo sapiens); assay: blockers of SF-1 LBD reporter transcription – cell-based, CHO-K1, Gal4-SF-1 LBD, luciferase luminescence, dose response (AID 600); details: inactive by the depositor's call
pIC50: −log10 of the molar value.
Each record here notes measured pIC50.
Readout type: pIC50

INSERT INTO assay_data (compound, data_value) VALUES
  ('Oc1ccc(N2CCN(c3ncnc4sc5c(c34)CCC5)CC2)cc1', 4.86),
  ('COc1ccc(Nc2cc(C)nc(-n3nc(C)cc3C)n2)cc1', 4.90),
  ('O=C1C(=CNc2ccc3c(c2)OCO3)CCc2ccccc21', 4.91),
  ('Cc1csc(NC(=O)Cc2nn(C)c(=O)c3ccccc23)n1', 4.46),
  ('COc1ccccc1CC(=O)N1CCN(c2cccc(C(F)(F)F)c2)CC1', 4.70),
  ('Cn1c(=O)c2c(nc(NCc3ccco3)n2C/C=C/c2ccccc2)n(C)c1=O', 4.77),
  ('COc1ccccc1OCC(=O)c1[nH]c(C)c(C(C)=O)c1C [MLS000053479]', 4.48),
  ('COc1ccc2c(c1)[nH]c1c(N3CCN(Cc4ccc5c(c4)OCO5)CC3)ncnc12', 4.88),
  ('O=S(=O)(NCc1cn2ccsc2n1)c1ccc(Oc2ccccc2)cc1 [MLS000094195]', 4.46),
  ('COc1cc2c(C#N)c(N3CCN(c4ccccc4OC)CC3)nc(N)c2c(N)n1', 4.53),
  ('N#CC(C#N)=c1ccc2c(c1)NC1(CCCCC1)N=2', 5.00),
  ('c1csc(CCNc2ncnc3sc4c(c23)CCC4)c1', 4.95),
  ('Cc1ccc(-c2csc(N3CCC(NS(=O)(=O)c4ccc5c(c4)OCCO5)CC3)n2)cc1', 4.95),
  ('COc1cc(CSc2nnnn2-c2ccc(C)cc2)cc(OC)c1OC', 4.77),
  ('CCCCOc1ccc(S(=O)(=O)Nc2cccnc2)cc1', 4.60),
  ('COc1cccc(Cn2c(NCc3ccco3)nc3c2c(=O)n(C)c(=O)n3C)c1', 4.59),
  ('COc1cccc(N2CCN(c3ncnc4c3[nH]c3ccccc34)CC2C)c1 (configuration not stated)', 4.54),
  ('FC(F)(F)c1ccc(N2CCN(c3cc(-c4ccccc4)nc4ncnn34)CC2)nc1', 4.67),
  ('COc1ccc(CC(=O)Nc2ccc(-c3nnc(-c4ccccc4)o3)cc2)cc1', 4.74),
  ('CCN(C(=O)c1ccc(C(C)(C)C)cc1)c1nnc(Cn2nnc3ccccc32)s1 [MLS000072751]', 4.98),
  ('CC1CCCCN1S(=O)(=O)c1ccc(C(=O)Nc2nnc(-c3cccs3)o2)cc1 (configuration not stated)', 4.75),
  ('Cc1ccccc1S(=O)(=O)Cc1ccc(C(=O)N2CCN(c3cccc(C)c3C)CC2)o1', 4.87),
  ('COc1ccc(-c2cc(C(=O)O)c(C)o2)cc1OC', 4.96),
  ('COc1cc(C(=O)Oc2c(CN3CCOCC3)cc(Cl)c3cccnc23)cc(OC)c1OC', 4.91),
  ('Cc1cc(N2CCN(c3nc4ccccc4s3)CC2)n2ncnc2n1', 4.64),
  ('COc1ccc(NC(=O)N2CCCC(c3nc(-c4ccc(C(C)C)cc4)no3)C2)cc1 (configuration not stated)', 4.85),
  ('c1ccc(CN2CCN(c3ncnc4c3[nH]c3ccccc34)CC2)cc1 [MLS000078384]', 4.81),
  ('COc1ccc(-c2nnc(NC(=O)c3ccc(S(=O)(=O)N4COCC4(C)C)cc3)o2)cc1', 4.87),
  ('Cc1cc(NC(=O)c2ccc3c(c2)OCCO3)no1 [MLS000064124]', 4.88),
  ('C=CCOC(=O)c1[nH]c2c(c1C)C(=O)CC(c1cc(OC)c(OC)c(OC)c1)C2 (configuration not stated) [SMR000093465]', 4.74),
  ('Oc1c(CN2CCCCC2)cc(COCc2ccccc2)c2cccnc12', 4.57),
  ('COc1ccc(CCNc2nc(C)nc3c2oc2ccccc23)cc1OC [MLS000040997]', 5.00),
  ('Cc1ccc(NC(=O)Cc2nn(C)c(=O)c3ccccc23)cc1F [MLS000047015]', 4.94),
  ('CC(=O)c1sc(NC(=O)C2(F)C(F)(F)C(F)(F)C(F)(F)C(F)(F)C2(F)F)nc1C [MLS000040071]', 4.81),
  ('N#C/C(=C\c1ccc(O)c(O)c1)C(=O)NCCCc1ccccc1 [MLS000069704]', 4.87),
  ('O=S(=O)(C/C(=C/CO)S(=O)(=O)c1ccccc1)c1ccccc1', 4.75),
  ('CC(=O)c1c(C)[nH]c(C(=O)Nc2ccc(C)cn2)c1C [SMR000026816]', 4.85),
  ('CCc1ccc(-c2nc(CSCC(=O)N3CCN(c4ncccn4)CC3)c(C)o2)cc1', 4.43),
  ('CCOc1ccc(-c2cc(CCCC(=O)Nc3cc(OC)ccc3OC)no2)cc1 [MLS000045930]', 4.90),
  ('CC(C)Cn1c(N)c(C(=O)CSc2ccc3c(c2)OCCO3)c(=O)n(C)c1=O', 4.87),
  ('CN1Cc2cc(C(=O)c3cc(Cl)cc(CSc4ncccn4)c3O)cnc2NC1=O', 4.90),
  ('CC(C)OCCCNc1ncnc2c1[nH]c1ccc(F)cc12', 4.68);
